Test system: Plasmodium berghei
Test: Luciferase/luciferin-expressing antifolate-resistant parasites were used to infect a culture of HepG2 cells that were pre-incubated with compounds. Infected hepatocytes emit light due to the luciferase reaction. Assay results are presented as the percent inhibition of light emission compared to control. […]
Format: functional
Settings: sporozoite, HEPG2TOX_HILL_SLOPE 2.22, HEPG2TOX_R_SQUARED 0.951, PBLUC_HILL_SLOPE 6.3, PBLUC_R_SQUARED 0.659, read-out: LUCIFERASE INFECTION ASSAY - IC50
measurementName: IC50

{"smilesRepr": "O=c1[nH]n(-c2ccc(Cl)c(Cl)c2)cc1-c1cccc(Cl)c1", "valueReported": "3.89 µM"}
